biological target: BACE-1 enzyme (Homo sapiens, UniProt P56817); construct: purchased R & D Systems 931AS; assay: BACE Fluorescence Resonance Energy Transfer (FRET) Assay; format: biochemical; details: pH 4-4.5, 30 min pre-incubation, about 1.5 hours reaction
Sequence (P56817 46-457 limits assumed): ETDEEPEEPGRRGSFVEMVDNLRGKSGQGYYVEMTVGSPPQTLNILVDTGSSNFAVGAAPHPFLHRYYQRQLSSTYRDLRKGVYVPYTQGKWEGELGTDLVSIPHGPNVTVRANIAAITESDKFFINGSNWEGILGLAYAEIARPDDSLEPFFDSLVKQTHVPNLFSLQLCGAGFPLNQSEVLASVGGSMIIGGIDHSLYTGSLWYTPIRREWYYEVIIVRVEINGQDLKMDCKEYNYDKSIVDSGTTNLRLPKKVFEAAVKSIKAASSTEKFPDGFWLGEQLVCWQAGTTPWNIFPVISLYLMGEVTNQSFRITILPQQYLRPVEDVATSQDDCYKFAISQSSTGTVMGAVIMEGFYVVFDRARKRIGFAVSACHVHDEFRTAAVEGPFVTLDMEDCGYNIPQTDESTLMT
metric: IC50 (µM)

Cc1cccn2cc(C(=O)Nc3nc4cc(-c5ccc(C(F)(F)F)c(Cl)c5)ccc4[nH]3)nc12 :: 1.78

1 = Cc1c(C#CCO)ccc2nc(C(=O)Nc3nc4cc(-c5cccc(C(F)(F)F)c5)ccc4[nH]3)cn12
2 = O=C(Nc1nc2cc(-c3cccc(Cl)c3)ccc2[nH]1)c1cn2cc(N3CC[C@H](O)C3)ccc2n1
Prompt line: Out of 1 and 2 , name the one with the higher IC50. In your reply, give the label of the chosen option.
Response line: 1

* * *

biological target: BACE-1 enzyme (Homo sapiens); construct: purchased R & D Systems 931AS; experiment: BACE Fluorescence Resonance Energy Transfer (FRET) Assay; type: biochemical; conditions: pH 4-4.5, 30 min pre-incubation, about 1.5 hours reaction
metric: IC50 (µM)

CO[C@H]1CCN(c2ccc3nc(C(=O)Nc4nc5cc(-c6cccc(Cl)c6)ccc5[nH]4)cn3c2)C1 :: 0.41
Cc1cccn2cc(C(=O)Nc3nc4cc(-c5cc(F)cc(Cl)c5)ccc4[nH]3)nc12 :: 0.4
CC(C)c1cccc2nc(C(=O)Nc3nc4cc(-c5cccc(C(F)(F)F)c5)ccc4[nH]3)cn12 :: 1.23
O=C(Nc1nc2cc(-c3cccc(C(F)(F)F)c3)ccc2[nH]1)c1cn2ccc(CN3CCNCC3)cc2n1 :: 0.66
Cc1cccn2cc(C(=O)Nc3nc4cc(-c5cccc(Cl)c5)ccc4[nH]3)nc12 :: 0.96

a = Cc1cccc2nc(C(=O)Nc3nc4cc(-c5ccc(OC(C)C)c(Cl)c5)ccc4[nH]3)cn12
b = Cc1cccc2nc(C(=O)Nc3nc4cc(OCc5ccc(C(F)(F)F)cc5)ccc4[nH]3)cn12
c = O=C(Nc1nc2cc(-c3cccc(C(F)(F)F)c3)ccc2[nH]1)c1cn2c(CN3CCC(O)CC3)cccc2n1
d = Cc1cccc2nc(C(=O)Nc3nc4cc(-c5ccc(F)c(Cl)c5)ccc4[nH]3)cn12
e = COc1cccc(-c2ccc3[nH]c(NC(=O)c4cn5c(C)cccc5n4)nc3c2)c1
Prompt line: Sort ascending by IC50. Your reply should list the labels following the order given in the request.
Response line: e, b, d, a, c

1 = CCc1cccc2nc(C(=O)Nc3nc4cc(-c5cccc(OC(F)(F)F)c5)ccc4[nH]3)cn12
2 = Cc1cccc2nc(C(=O)Nc3nc4cc(OCc5ccccc5C(F)(F)F)ccc4[nH]3)cn12
Prompt line: Returns: the label, 1 or 2 , whose recorded IC50 is the lower number. In your reply, give the label of the chosen option.
Response line: 2

* * *

target: BACE-1 enzyme (Homo sapiens, UniProt P56817); construct: purchased R & D Systems 931AS; assay: BACE Fluorescence Resonance Energy Transfer (FRET) Assay; format: biochemical; conditions: pH 4-4.5, 30 min pre-incubation, about 1.5 hours reaction
metric: IC50 (µM)

Look over these answered cases.
Cc1cccn2cc(C(=O)Nc3nc4cc(-c5ccccc5)ccc4[nH]3)nc12 :: 1.29
Cc1cccc2nc(C(=O)Nc3nc4cc(-c5cccc(OC(F)(F)F)c5)ccc4[nH]3)cn12 :: 0.26
Cc1cc(OCCN(C)C)c2nc(C(=O)Nc3nc4cc(-c5cc(F)cc(Cl)c5)ccc4[nH]3)cn2c1 :: 0.32
CC(C)CNCc1ccc2nc(C(=O)Nc3nc4cc(-c5cccc(C(F)(F)F)c5)ccc4[nH]3)cn2c1 :: 0.37
O=C(Nc1nc2cc(-c3cccc(C(F)(F)F)c3)ccc2[nH]1)c1cn2c(CN3CCOCC3)cccc2n1 :: 0.42
CN(Cc1ccccc1)Cc1ccc2nc(C(=O)Nc3nc4cc(-c5cccc(C(F)(F)F)c5)ccc4[nH]3)cn2c1 :: 0.62
O=C(Nc1nc2cc(-c3cc(F)cc(Cl)c3)ccc2[nH]1)c1cn2c(C(=O)NC3CCNCC3)cccc2n1 :: 0.48
O=C(Nc1nc2cc(-c3cccc(C(F)(F)F)c3)ccc2[nH]1)c1cn2c(CN3CCCC3)cccc2n1 :: 0.49

1 = CN(C)C(=O)c1cccc2nc(C(=O)Nc3nc4cc(-c5cc(F)cc(Cl)c5)ccc4[nH]3)cn12
2 = COCCCNc1cc(F)cn2cc(C(=O)Nc3nc4cc(-c5cc(F)cc(Cl)c5)ccc4[nH]3)nc12
3 = Cc1cccn2cc(C(=O)Nc3nc4cc(OCc5ccccc5)ccc4[nH]3)nc12
4 = O=C(Nc1nc2cc(-c3cccc(C(F)(F)F)c3)ccc2[nH]1)c1cn2ccc(CNC(CO)Cc3ccccc3)cc2n1 (stereo not shown)
Prompt line: Order field: IC50 | Direction: descending (largest first) Your reply should list the labels following the order given in the request.
Response line: 4, 2, 1, 3
